Target: HLA-DRB5*01:01 (Homo sapiens, UniProt P01903+Q30154)
Construct: Human leukocyte antigen-DR molecules were immunopurified from homozygous EBV B lymphoblastoid cells; endogenous in cells
Assay: biochemical
Assay type: binding
Conditions: […]; mean of at least two independent experiments; read-out: IC50 DRB5*0101
*1 amine or outer side, *2 acyl side, *3 side chain or, on linkers, in order; H or OH if unused. Where a SMILES comes first, the peptide text is derived from it. [ ]: non-standard residue; d: D form. X1 = NCCCC[C@@H](C(=O)[*:2])N(C[C@@H]1CCCN1)[*:1]
reported property: pIC50
Keep it numeric: pIC50 is minus log10 of the concentration in mol/L.

Some solved entries appear below for comparison.
[[record]]
compound = "CC(C)C[C@H](NC(=O)[C@H](CCCCN)NC(=O)[C@H](CC(C)C)NC(=O)[C@@H](NC(=O)[C@H](CC(N)=O)NC(=O)CN(CCC(N)=O)C(=O)[C@H](CCCCN)NC(=O)[C@@H](NC(=O)[C@H](Cc1ccc(O)cc1)NC(=O)[C@H](CCCCN)NC(=O)[C@@H]1CCCN1)C(C)C)[C@@H](C)O)C(=O)N[C@@H](C)C(=O)N[C@H](C(=O)O)[C@@H](C)O [Pep6]"
system = "HLA-DRB5*01:01 (Homo sapiens, UniProt P01903+Q30154)"
recorded_value = 8.00

[[record]]
compound = "CC(C)C[C@H](NC(=O)[C@H](CCCCN)NC(=O)[C@H](CC(C)C)NC(=O)[C@@H](NC(=O)[C@H](CC(N)=O)NC(=O)[C@H](CCC(N)=O)NC(=O)[C@H](CCCCN)NC(=O)[C@@H](NC(=O)[C@H](Cc1ccc(O)cc1)NC(=O)[C@H](CCCCN)NC[C@@H]1CCCN1)C(C)C)[C@@H](C)O)C(=O)N[C@@H](C)C(=O)N[C@H](C(=O)O)[C@@H](C)O [Rd1] (H-[X1]YVKQNTLKLAT-OH; N-terminus and C-terminus assumed)"
system = "HLA-DRB5*01:01 (Homo sapiens, UniProt P01903+Q30154)"
recorded_value = 6.92


Q) Could you share which pIC50 value was measured for CC(C)C[C@H](NC(=O)[C@H](CCCCN)NC(=O)[C@H](CC(C)C)NC(=O)[C@@H](NC(=O)[C@H](CC(N)=O)NC(=O)[C@H](CCC(N)=O)NC(=O)[C@H](CCCCN)NC(=O)[C@@H](NC(=O)CN(Cc1ccc(O)cc1)C(=O)[C@H](CCCCN)NC(=O)[C@@H]1CCCN1)C(C)C)[C@@H](C)O)C(=O)N[C@@H](C)C(=O)N[C@H](C(=O)O)[C@@H](C)O [Pep3] ?
A) 4.85

---

Target: HLA-DRB1*04:01 (Homo sapiens, UniProt P01903+P01911, A100K/A169T/F76Y/I96L/K127E/L162R/M171V/N62H/P40V/Q125Y/R42H/S133A/S149N/S66Y/V115G/V209L/W38E)
Construct: Human leukocyte antigen-DR molecules were immunopurified from homozygous EBV B lymphoblastoid cells; endogenous in cells
Assay: biochemical
Assay type: binding
Details: […]; mean of at least two independent experiments; read-out: IC50 DRB1*0401
# maps each entry to its IC50
# number only, unit nM dropped from output

[[record]]
compound_structure_string = "CC(C)C[C@H](NC(=O)[C@H](CCCCN)NC(=O)[C@H](CC(C)C)NC(=O)C(C)(C)NC(=O)[C@H](CC(N)=O)NC(=O)[C@H](CCC(N)=O)NC(=O)[C@H](CCCCN)NC(=O)[C@@H](NC(=O)[C@H](Cc1ccc(O)cc1)NC(=O)[C@H](CCCCN)NC(=O)[C@@H]1CCCN1)C(C)C)C(=O)N[C@@H](C)C(=O)N[C@H](C(=O)O)[C@@H](C)O"
reported_property = "IC50"
recorded_value = 140


Next item in the queue.
Q) Could you share which IC50 value was measured for CC(C)C[C@H](NC(=O)[C@H](CCCCN)NC(=O)[C@H](CC(C)C)NC(=O)[C@@H](NC(=O)[C@H](CC(N)=O)NC(=O)[C@H](CCC(N)=O)NC(=O)C(C)(C)NC(=O)[C@@H](NC(=O)[C@H](Cc1ccc(O)cc1)NC(=O)[C@H](CCCCN)NC(=O)[C@@H]1CCCN1)C(C)C)[C@@H](C)O)C(=O)N[C@@H](C)C(=O)N[C@H](C(=O)O)[C@@H](C)O ?
A) 30

---

Molecular target: HLA-DRB1*11:01 (Homo sapiens, UniProt P01903+P01911, A100R/A169T/A87E/I96F/K41T/L162R/M171V/P40S/Q125H/Q178H/Q39Y/Q99D/R42S/S66Y/T262R/V115G/W38E)
Sequence (P01903 26-254 limits assumed, other chains not shown): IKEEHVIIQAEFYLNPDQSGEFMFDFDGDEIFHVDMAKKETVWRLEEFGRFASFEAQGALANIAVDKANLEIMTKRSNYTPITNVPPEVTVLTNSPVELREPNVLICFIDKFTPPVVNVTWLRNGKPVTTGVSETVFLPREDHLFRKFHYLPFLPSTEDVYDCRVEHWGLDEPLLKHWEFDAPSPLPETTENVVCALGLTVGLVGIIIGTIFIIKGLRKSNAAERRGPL
Test: biochemical
Format: binding
Conditions: […]; mean of at least two independent experiments; read-out: IC50 DRB1*1101 (converted)
*1 amine or outer side, *2 acyl side, *3 side chain or, on linkers, in order; H or OH if unused. Where a SMILES comes first, the peptide text is derived from it. [ ]: non-standard residue; d: D form. X1 = NCCCC[C@@H](C(=O)[*:2])N(C[C@@H]1CCCN1)[*:1]
Please use satisfied for IC50 under 400 nM and not satisfied for everything else, ties included.

# count of solved cases: 2
[[record]]
molecule = "CC(C)C[C@H](NC(=O)[C@H](CCCCN)NC(=O)[C@H](CC(C)C)NC(=O)[C@@H](NC(=O)[C@H](CC(N)=O)NC(=O)[C@H](CCC(N)=O)NC(=O)[C@H](CCCCN)NC(=O)CN(C(=O)[C@H](Cc1ccc(O)cc1)NC(=O)[C@H](CCCCN)NC(=O)[C@@H]1CCCN1)C(C)C)[C@@H](C)O)C(=O)N[C@@H](C)C(=O)N[C@H](C(=O)O)[C@@H](C)O"
assigned_label = "not satisfied"

[[record]]
molecule = "CC(C)C[C@H](NC(=O)[C@H](CCCCN)NC(=O)[C@H](CC(C)C)NC(=O)[C@@H](NC(=O)[C@H](CC(N)=O)NC(=O)[C@H](CCC(N)=O)NC(=O)[C@H](CCCCN)NC(=O)[C@@H](NC(=O)[C@H](Cc1ccc(O)cc1)NC(=O)[C@H](CCCCN)NC[C@@H]1CCCN1)C(C)C)[C@@H](C)O)C(=O)N[C@@H](C)C(=O)N[C@H](C(=O)O)[C@@H](C)O [Rd1] (H-[X1]YVKQNTLKLAT-OH; N-terminus and C-terminus assumed)"
assigned_label = "not satisfied"


Q) Quick check: does CC(C)C[C@H](NC(=O)[C@H](CCCCN)NC(=O)[C@H](CC(C)C)NC(=O)[C@@H](NC(=O)[C@H](CC(N)=O)NC(=O)[C@H](CCC(N)=O)NC(=O)[C@H](CCCCN)NC(=O)[C@@H](NC(=O)[C@H](Cc1ccc(O)cc1)NC(=O)[C@H](CCCCN)NC(=O)[C@@H]1CCCN1)C(C)C)[C@@H](C)O)C(=O)NC(C)(C)C(=O)N[C@H](C(=O)O)[C@@H](C)O have IC50 under 400 nM?
A) satisfied

Q) Record: CC(C)C[C@H](NC(=O)[C@H](CCCCN)NC(=O)[C@H](CC(C)C)NC(=O)[C@@H](NC(=O)[C@H](CC(N)=O)NC(=O)C(C)(C)NC(=O)[C@H](CCCCN)NC(=O)[C@@H](NC(=O)[C@H](Cc1ccc(O)cc1)NC(=O)[C@H](CCCCN)NC(=O)[C@@H]1CCCN1)C(C)C)[C@@H](C)O)C(=O)N[C@@H](C)C(=O)N[C@H](C(=O)O)[C@@H](C)O
A) satisfied

Q) Record: CC(C)C[C@H](NC(=O)[C@@H](NC(=O)[C@H](CC(N)=O)NC(=O)[C@H](CCC(N)=O)NC(=O)[C@H](CCCCN)NC(=O)[C@@H](NC(=O)[C@H](Cc1ccc(O)cc1)NC(=O)[C@H](CCCCN)NC(=O)[C@@H]1CCCN1)C(C)C)[C@@H](C)O)C(=O)N[C@@H](CCCCN)C(=O)NC(C)(C)C(=O)N[C@@H](C)C(=O)N[C@H](C(=O)O)[C@@H](C)O
A) satisfied

Q) Record: CC(C)C[C@H](NC(=O)[C@H](CCCCN)NC(=O)[C@H](CC(C)C)NC(=O)C(C)(C)NC(=O)[C@H](CC(N)=O)NC(=O)[C@H](CCC(N)=O)NC(=O)[C@H](CCCCN)NC(=O)[C@@H](NC(=O)[C@H](Cc1ccc(O)cc1)NC(=O)[C@H](CCCCN)NC(=O)[C@@H]1CCCN1)C(C)C)C(=O)N[C@@H](C)C(=O)N[C@H](C(=O)O)[C@@H](C)O
A) not satisfied
